All values here come from patent US20070244048A1.

target.system: T1, mouse NMUR1-CTG (mouse, UniProt O55040 1-428)
T1 sequence (looked up): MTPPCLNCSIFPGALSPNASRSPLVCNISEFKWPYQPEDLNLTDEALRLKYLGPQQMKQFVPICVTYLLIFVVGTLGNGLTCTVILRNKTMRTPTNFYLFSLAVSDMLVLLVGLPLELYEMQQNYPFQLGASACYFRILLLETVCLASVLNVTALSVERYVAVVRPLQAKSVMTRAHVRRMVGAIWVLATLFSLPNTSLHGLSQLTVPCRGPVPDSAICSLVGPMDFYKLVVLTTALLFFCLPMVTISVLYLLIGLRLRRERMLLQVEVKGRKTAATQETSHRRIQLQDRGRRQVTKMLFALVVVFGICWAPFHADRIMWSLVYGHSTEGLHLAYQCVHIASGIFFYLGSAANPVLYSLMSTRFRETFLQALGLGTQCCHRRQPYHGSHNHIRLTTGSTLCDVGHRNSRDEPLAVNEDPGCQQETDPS
method.summary: cell-based or functional assay
*: point of attachment. Cholesteroyl = cholesterol linked to a cysteine residue via the side-chain thiol; Succinimide(1-Et,3-yl) = CCN1C(=O)CC(*)C1=O
readout.type: EC50 (FLIPR) (nM)

Ac-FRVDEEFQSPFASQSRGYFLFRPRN-NH2 [NMU2]: 8.3
Ac-C(PEG 20 kDa)C(PEG 20 kDa)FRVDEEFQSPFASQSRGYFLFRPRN-NH2 [NMU23]: 770
Ac-C(Cholesteroyl)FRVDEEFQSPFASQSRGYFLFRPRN-NH2 [NMU10]: 1000
Ac-C(Succinimide(1-Et,3-yl))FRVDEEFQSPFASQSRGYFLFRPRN-NH2 [NMU8]: 15.5
